target: PDE1B (Homo sapiens (Human)); assay: PDE1 inhibition assay (SPA, tritium labelled cAMP), PDE1B; assay type: biochemical
pIC50: −log10 of the molar value.
reportedProperty: pIC50

{"compound": "Cc1nn(C(C)C)c2c3cc(nc12)-c1cccnc1OCCCCOc1ncccc1CN3 [Example 1]", "reportedProperty": "pIC50", "measured": 8.85}

* * *

Reported IC50, PDE1C (Homo sapiens (Human), UniProt Q14123).

{"querySmiles": "CCn1nc(C)c2nc3cc(c21)NCc1cccnc1OCCCCOc1ncccc1-3", "IC50, nM": 412}
{"querySmiles": "Cc1nn(C(C)C)c2c3cc(nc12)-c1cccnc1OCCCCCOc1ncccc1CN3", "IC50, nM": 54}
{"querySmiles": "Cc1nn(C(C)C)c2c3cc(nc12)-c1cccnc1OCCCCn1nccc1CN3", "IC50, nM": 56}
{"querySmiles": "Cc1nn(C(C)C)c2c3cc(nc12)-c1cccnc1OCCCCOc1nccnc1CN3", "IC50, nM": 17}
{"querySmiles": "Cc1nn(C)c2c3cc(nc12)-c1cccnc1OCCCCOc1ncccc1CN3", "IC50, nM": 497}

* * *

molecular target: PDE1B (Homo sapiens (Human), UniProt Q01064); assay: PDE1 inhibition assay (SPA, tritium labelled cAMP), PDE1B; format: biochemical; conditions: Table 1, compounds of the invention; 15 nM tritium labelled cAMP; read-out: PDE1B, IC50
Sequence (Q01064 whole entry): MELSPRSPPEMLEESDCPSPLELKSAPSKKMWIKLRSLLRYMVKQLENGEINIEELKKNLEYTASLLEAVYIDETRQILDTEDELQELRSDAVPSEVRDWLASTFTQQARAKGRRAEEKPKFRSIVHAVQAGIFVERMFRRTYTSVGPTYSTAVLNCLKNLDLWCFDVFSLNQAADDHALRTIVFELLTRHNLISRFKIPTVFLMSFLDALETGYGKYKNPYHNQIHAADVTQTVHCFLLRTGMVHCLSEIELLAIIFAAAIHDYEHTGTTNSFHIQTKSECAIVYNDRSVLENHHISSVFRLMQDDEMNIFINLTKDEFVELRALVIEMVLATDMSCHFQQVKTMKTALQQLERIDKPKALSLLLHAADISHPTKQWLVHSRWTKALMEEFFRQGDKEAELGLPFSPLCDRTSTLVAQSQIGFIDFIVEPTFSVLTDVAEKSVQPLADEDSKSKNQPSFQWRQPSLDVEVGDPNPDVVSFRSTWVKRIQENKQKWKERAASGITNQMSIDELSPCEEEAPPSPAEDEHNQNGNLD
reportedProperty: IC50 (nM)

{"molecule": "Cc1nn(C)c2c3cc(nc12)-c1cccnc1OCCCCOc1ncccc1CN3 [Example 7]", "testSystem": "PDE1B (Homo sapiens (Human), UniProt Q01064)", "reportedProperty": "IC50", "unitOfMeasurement": "nM", "measured": 95}
{"molecule": "Cc1nn(C(C)C)c2c3cc(nc12)-c1cccnc1OCCCCCn1nccc1CN3 [Example 5]", "testSystem": "PDE1B (Homo sapiens (Human), UniProt Q01064)", "reportedProperty": "IC50", "unitOfMeasurement": "nM", "measured": 4.7}
{"molecule": "CCn1nc(C)c2nc3cc(c21)NCc1cccnc1OCCCCOc1ncccc1-3 [Example 8]", "testSystem": "PDE1B (Homo sapiens (Human), UniProt Q01064)", "reportedProperty": "IC50", "unitOfMeasurement": "nM", "measured": 36}
{"molecule": "Cc1nn(C(C)C)c2c3cc(nc12)-c1cccnc1OCCCCCOc1ncccc1CN3 [Example 2]", "testSystem": "PDE1B (Homo sapiens (Human), UniProt Q01064)", "reportedProperty": "IC50", "unitOfMeasurement": "nM", "measured": 1.5}
{"molecule": "Cc1nn(C(C)C)c2c3cc(nc12)-c1cccnc1OCCCOc1ncccc1CN3 [Example 3]", "testSystem": "PDE1B (Homo sapiens (Human), UniProt Q01064)", "reportedProperty": "IC50", "unitOfMeasurement": "nM", "measured": 4.2}
{"molecule": "Cc1nn(C(C)C)c2c3cc(nc12)-c1cccnc1OCCCCn1nccc1CN3 [Example 9]", "testSystem": "PDE1B (Homo sapiens (Human), UniProt Q01064)", "reportedProperty": "IC50", "unitOfMeasurement": "nM", "measured": 15}
{"molecule": "Cc1nn(C(C)C)c2c3cc(nc12)-c1cccnc1OCCOCCOc1ncccc1CN3 [Example 4]", "testSystem": "PDE1B (Homo sapiens (Human), UniProt Q01064)", "reportedProperty": "IC50", "unitOfMeasurement": "nM", "measured": 0.54}
{"molecule": "Cc1nn(C(C)C)c2c3cc(nc12)-c1cccnc1OCCCCOc1cccnc1CN3 [Example 6]", "testSystem": "PDE1B (Homo sapiens (Human), UniProt Q01064)", "reportedProperty": "IC50", "unitOfMeasurement": "nM", "measured": 0.27}

* * *

In this section, each of the molecules is paired with its reported IC50.
target: PDE1A (Homo sapiens (Human))
Sequence (P54750 whole entry): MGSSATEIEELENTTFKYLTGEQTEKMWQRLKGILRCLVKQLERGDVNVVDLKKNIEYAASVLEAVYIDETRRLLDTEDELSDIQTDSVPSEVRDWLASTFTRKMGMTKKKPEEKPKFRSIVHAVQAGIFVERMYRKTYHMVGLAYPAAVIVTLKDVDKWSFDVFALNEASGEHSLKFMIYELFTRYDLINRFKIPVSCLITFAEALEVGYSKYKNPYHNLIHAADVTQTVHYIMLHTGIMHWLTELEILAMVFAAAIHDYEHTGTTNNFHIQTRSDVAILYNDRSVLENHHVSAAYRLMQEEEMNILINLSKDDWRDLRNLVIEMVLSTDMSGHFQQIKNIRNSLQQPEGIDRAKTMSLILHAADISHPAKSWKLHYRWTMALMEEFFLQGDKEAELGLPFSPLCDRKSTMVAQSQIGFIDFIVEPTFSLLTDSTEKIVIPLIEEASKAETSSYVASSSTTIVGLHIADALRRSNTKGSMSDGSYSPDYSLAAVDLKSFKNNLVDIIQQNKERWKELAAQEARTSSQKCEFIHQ

{"querySmiles": "Cc1nn(C)c2c3cc(nc12)-c1cccnc1OCCCCOc1ncccc1CN3", "unitOfMeasurement": "nM", "IC50": 428}
{"querySmiles": "Cc1nn(C(C)C)c2c3cc(nc12)-c1cccnc1OCCCCOc1ncccc1CN3", "unitOfMeasurement": "nM", "IC50": 12}
{"querySmiles": "Cc1nn(C(C)C)c2c3cc(nc12)-c1cccnc1OCCCCOc1nccnc1CN3", "unitOfMeasurement": "nM", "IC50": 10}
{"querySmiles": "CCn1nc(C)c2nc3cc(c21)NCc1cccnc1OCCCCOc1ncccc1-3", "unitOfMeasurement": "nM", "IC50": 256}
{"querySmiles": "Cc1nn(C(C)C)c2c3cc(nc12)-c1cccnc1OCCCCCOc1ncccc1CN3", "unitOfMeasurement": "nM", "IC50": 18}
{"querySmiles": "Cc1nn(C(C)C)c2c3cc(nc12)-c1cccnc1OCCCOc1ncccc1CN3", "unitOfMeasurement": "nM", "IC50": 38}
{"querySmiles": "Cc1nn(C(C)C)c2c3cc(nc12)-c1cccnc1OCCCCCn1nccc1CN3", "unitOfMeasurement": "nM", "IC50": 25}
